assaySystem: T1, recombinant human IL-4Rα (extracellular domain, tagged) (human, UniProt P24394 26-232)
T1 construct: it is written second here only for want of that; also called hIL-4Rα; not shown: His-tag or other conventionally used tag
assayMethodText: SPR, Biacore T200; antibody (human IgG4) on the sensor chip, human IL-4Rα at 0.625-12.5 nM
Description: The binding affinity of the anti-IL-4Rα antibodies (reformatted as human IgG4) to human IL-4Rα was characterized using Biacore T200 (GE). The full-length anti-IL-4Rα antibodies were stabilized on sensor chip CMS. The affinities for human IL-4Rα at various concentrations were measured. […] Using the SPR technology, the association and dissociation rates were measured, and binding affinity was determined.
testReadout: kon (M⁻¹ s⁻¹)
Express it in M⁻¹ s⁻¹; write the number only.

Query: Give kon for the following binder: C27-33-33 (antibody, human IgG4, V domains shown) VH: EVQLLESGGGLVQPGGSLRLSCAASGFTLSSYAMHWVRQAPGKGLEYVSGISSSGSSTYYANSVKGRFTISRDNPKNTLFLQMSSLRAEDTAVYYCVRVKVAYRGGMDVWGQGTTVTVSS VL: EIVLTQSPGTLSLSPGERATLSCRASQGISSAYLAWYQQKPGQAPRLLIYGTSRRATGIPDRFSGSGSGTDFTLTISRLEPEDFAVYYCQLYGATSVTFGQGTKLEIK
Result: 119000
